Each entry below lists one item and its recorded Drug metabolism value.
Experiment: Prodrug activation in simulated intestinal fluid at 0.01 mg/mL after 60 mins by LC/MS analysis
Conditions: simulated gi fluid, 1 h

- Mol smiles: "CCCCOC(=O)Nc1nc2ccc(OC(F)(F)F)cc2s1"
  Drug metabolism, %: 0
- Mol smiles: "O=C(CCC(=O)Nc1nc2ccc(OC(F)(F)F)cc2s1)NCc1cccnc1"
  Drug metabolism, %: 10
- Mol smiles: "NCC1(CC(=O)Nc2nc3ccc(OC(F)(F)F)cc3s2)CCCCC1"
  Drug metabolism, %: 50

* * *

Experiment: Prodrug activation in simulated intestinal fluid at 0.01 mg/mL after 60 mins by LC/MS analysis
Conditions: simulated gi fluid, 1 h
Each entry below lists one item and its recorded Drug metabolism value.

- Compound: "C[C@H](N)C(=O)Nc1nc2ccc(OC(F)(F)F)cc2s1"
  Measurement units: "%"
  Drug metabolism: 50
- Compound: "CCCOC(=O)Nc1nc2ccc(OC(F)(F)F)cc2s1"
  Measurement units: "%"
  Drug metabolism: 0
- Compound: "CCC(C)OC(=O)Nc1nc2ccc(OC(F)(F)F)cc2s1 (stereo unspecified)"
  Measurement units: "%"
  Drug metabolism: 0
- Compound: "CC(C)[C@H](N)C(=O)Nc1nc2ccc(OC(F)(F)F)cc2s1"
  Measurement units: "%"
  Drug metabolism: 40
- Compound: "NCCCC(=O)Nc1nc2ccc(OC(F)(F)F)cc2s1"
  Measurement units: "%"
  Drug metabolism: 0
- Compound: "O=C(O)CCC(=O)Nc1nc2ccc(OC(F)(F)F)cc2s1"
  Measurement units: "%"
  Drug metabolism: 0

* * *

Test system: Liver
Assay: Prodrug activation in mouse liver microsomes at 1 uM incubated for 10 mins prior to NADPH addition measured after 30 mins by LC/MS/MS analysis
Design: species or system Microsome
Settings: 0.5 h
Each entry below lists one item and its recorded Drug metabolism value.
Attribute measured: Drug metabolism (%)

- Mol smiles: "CCOC(=O)Nc1nc2ccc(OC(F)(F)F)cc2s1"
  Test value: 8
- Mol smiles: "CC(C)[C@H](N)C(=O)Nc1nc2ccc(OC(F)(F)F)cc2s1"
  Test value: 40
- Mol smiles: "N[C@@H](Cc1ccccc1)C(=O)Nc1nc2ccc(OC(F)(F)F)cc2s1"
  Test value: 2
- Mol smiles: "COC(=O)Nc1nc2ccc(OC(F)(F)F)cc2s1"
  Test value: 10
- Mol smiles: "N[C@H](COCc1ccccc1)C(=O)Nc1nc2ccc(OC(F)(F)F)cc2s1"
  Test value: 24
- Mol smiles: "CCCCOC(=O)Nc1nc2ccc(OC(F)(F)F)cc2s1"
  Test value: 53
- Mol smiles: "N[C@@H](COCc1ccccc1)C(=O)Nc1nc2ccc(OC(F)(F)F)cc2s1"
  Test value: 0
- Mol smiles: "N[C@H](Cc1ccccc1)C(=O)Nc1nc2ccc(OC(F)(F)F)cc2s1"
  Test value: 12
- Mol smiles: "O=C(CCC(=O)Nc1nc2ccc(OC(F)(F)F)cc2s1)NCc1cccnc1"
  Test value: 0
- Mol smiles: "O=C(O)CCC(=O)Nc1nc2ccc(OC(F)(F)F)cc2s1"
  Test value: 70
- Mol smiles: "NCCCC(=O)Nc1nc2ccc(OC(F)(F)F)cc2s1"
  Test value: 66

* * *

Assay: Prodrug activation in simulated intestinal fluid at 0.01 mg/mL after 60 mins by LC/MS analysis
Settings: simulated gi fluid, 1 h

- Mol smiles: "O=C(CCC(=O)Nc1nc2ccc(OC(F)(F)F)cc2s1)NCCN1CCOCC1"
  Measurement units: "%"
  Drug metabolism: 60
- Mol smiles: "O=C(Cc1ccccc1[N+](=O)[O-])Nc1nc2ccc(OC(F)(F)F)cc2s1"
  Measurement units: "%"
  Drug metabolism: 0
- Mol smiles: "C[C@@H](N)C(=O)Nc1nc2ccc(OC(F)(F)F)cc2s1"
  Measurement units: "%"
  Drug metabolism: 50
- Mol smiles: "CN(C)CCCOC(=O)Nc1nc2ccc(OC(F)(F)F)cc2s1"
  Measurement units: "%"
  Drug metabolism: 0
- Mol smiles: "CCOC(=O)Nc1nc2ccc(OC(F)(F)F)cc2s1"
  Measurement units: "%"
  Drug metabolism: 0
- Mol smiles: "COC(=O)Nc1nc2ccc(OC(F)(F)F)cc2s1"
  Measurement units: "%"
  Drug metabolism: 0
- Mol smiles: "COC(=O)CCC(=O)Nc1nc2ccc(OC(F)(F)F)cc2s1"
  Measurement units: "%"
  Drug metabolism: 0
- Mol smiles: "CN(C)CCOC(=O)Nc1nc2ccc(OC(F)(F)F)cc2s1"
  Measurement units: "%"
  Drug metabolism: 0
- Mol smiles: "CC(C)(C)OC(=O)CCC(=O)Nc1nc2ccc(OC(F)(F)F)cc2s1"
  Measurement units: "%"
  Drug metabolism: 0
- Mol smiles: "N[C@@H](COCc1ccccc1)C(=O)Nc1nc2ccc(OC(F)(F)F)cc2s1"
  Measurement units: "%"
  Drug metabolism: 0
- Mol smiles: "N[C@H](Cc1ccccc1)C(=O)Nc1nc2ccc(OC(F)(F)F)cc2s1"
  Measurement units: "%"
  Drug metabolism: 0

* * *

Tested on: Liver
Assay: Prodrug activation in mouse liver microsomes at 1 uM incubated for 10 mins prior to NADPH addition measured after 30 mins by LC/MS/MS analysis
Design: species or system Microsome
Conditions: 0.5 h
Rule: Met for Drug metabolism not less than 10%, Not met for anything less.

- Compound: "CCC(C)OC(=O)Nc1nc2ccc(OC(F)(F)F)cc2s1 (centres undefined)"
  System tested: "Liver"
  Qualitative label: "Met"
- Compound: "C[C@H](N)C(=O)Nc1nc2ccc(OC(F)(F)F)cc2s1"
  System tested: "Liver"
  Qualitative label: "Not met"
- Compound: "CC(C)(C)OC(=O)CCC(=O)Nc1nc2ccc(OC(F)(F)F)cc2s1"
  System tested: "Liver"
  Qualitative label: "Not met"
- Compound: "CN(C)CCCOC(=O)Nc1nc2ccc(OC(F)(F)F)cc2s1"
  System tested: "Liver"
  Qualitative label: "Met"
- Compound: "CN(C)CCOC(=O)Nc1nc2ccc(OC(F)(F)F)cc2s1"
  System tested: "Liver"
  Qualitative label: "Met"
- Compound: "CCCOC(=O)Nc1nc2ccc(OC(F)(F)F)cc2s1"
  System tested: "Liver"
  Qualitative label: "Met"
- Compound: "COC(=O)CCC(=O)Nc1nc2ccc(OC(F)(F)F)cc2s1"
  System tested: "Liver"
  Qualitative label: "Met"
- Compound: "O=C(Cc1ccccc1[N+](=O)[O-])Nc1nc2ccc(OC(F)(F)F)cc2s1"
  System tested: "Liver"
  Qualitative label: "Met"

* * *

Test system: Liver microsomes
Assay: Prodrug activation in human liver microsomes at 1 uM incubated for 10 mins prior to NADPH addition measured after 30 mins by LC/MS/MS analysis
Parameters: species or system Microsome
Conditions: 0.5 h
Assign labels as follows, please: Met for Drug metabolism below 4%; Not met for Drug metabolism equal to or exceeding 4%.

- Compound: "CC(C)(C)OC(=O)CCC(=O)Nc1nc2ccc(OC(F)(F)F)cc2s1"
  Qualitative label: "Not met"
- Compound: "N[C@H](Cc1ccccc1)C(=O)Nc1nc2ccc(OC(F)(F)F)cc2s1"
  Qualitative label: "Not met"
- Compound: "O=C(O)CCC(=O)Nc1nc2ccc(OC(F)(F)F)cc2s1"
  Qualitative label: "Met"
- Compound: "NCCCC(=O)Nc1nc2ccc(OC(F)(F)F)cc2s1"
  Qualitative label: "Not met"
- Compound: "N[C@@H](Cc1ccccc1)C(=O)Nc1nc2ccc(OC(F)(F)F)cc2s1"
  Qualitative label: "Met"
- Compound: "CCCCOC(=O)Nc1nc2ccc(OC(F)(F)F)cc2s1"
  Qualitative label: "Not met"
- Compound: "C[C@H](N)C(=O)Nc1nc2ccc(OC(F)(F)F)cc2s1"
  Qualitative label: "Met"
- Compound: "CCOC(=O)Nc1nc2ccc(OC(F)(F)F)cc2s1"
  Qualitative label: "Not met"
- Compound: "CN(C)CCOC(=O)Nc1nc2ccc(OC(F)(F)F)cc2s1"
  Qualitative label: "Not met"
- Compound: "COC(=O)CCC(=O)Nc1nc2ccc(OC(F)(F)F)cc2s1"
  Qualitative label: "Not met"
- Compound: "CC(C)[C@H](N)C(=O)Nc1nc2ccc(OC(F)(F)F)cc2s1"
  Qualitative label: "Not met"
- Compound: "N[C@@H](COCc1ccccc1)C(=O)Nc1nc2ccc(OC(F)(F)F)cc2s1"
  Qualitative label: "Not met"
- Compound: "COC(=O)Nc1nc2ccc(OC(F)(F)F)cc2s1"
  Qualitative label: "Met"
- Compound: "N[C@H](COCc1ccccc1)C(=O)Nc1nc2ccc(OC(F)(F)F)cc2s1"
  Qualitative label: "Met"
- Compound: "CCC(C)OC(=O)Nc1nc2ccc(OC(F)(F)F)cc2s1 (stereo not given)"
  Qualitative label: "Not met"
- Compound: "CN(C)CCCOC(=O)Nc1nc2ccc(OC(F)(F)F)cc2s1"
  Qualitative label: "Met"
- Compound: "CCCOC(=O)Nc1nc2ccc(OC(F)(F)F)cc2s1"
  Qualitative label: "Not met"
- Compound: "O=C(Cc1ccccc1[N+](=O)[O-])Nc1nc2ccc(OC(F)(F)F)cc2s1"
  Qualitative label: "Not met"
